Test system: Saccharomyces cerevisiae
Assay: protein stability index of tFT-peptide fusion in deletion strain of DOA10 (PSI (0-1 scale)); higher = more stable (slower turnover)
parameter: protein stability index
Give bare numbers.

INSERT INTO assay_data (entry_sequence, reported) VALUES
  ('GLYMCSQGCWFR', 0.691);

For every item below, please supply its protein stability index.
1. AITLPMAPLLLR
2. CLVSLPILRFFR
3. RVTRWDAIYFRI
4. RSLRTLLPLYFR
5. RVTRLDAIYFRIN
6. GLYMCSVGYWFR

Data returned:
0.666
0.657
0.368
0.686
0.125
0.603

For every item below, please supply its protein stability index.
1. RVTALDAIYFRI
2. AITLPMCPLLLRY
3. RSLRALLPLYFR

Data returned:
0.69
0.633
0.684

----------
Tested on: Saccharomyces cerevisiae
Assay: protein stability index of tFT-peptide fusion (C-terminal peptide) (PSI (0-1 scale)); higher = more stable (slower turnover)
Conditions: genetic background: wild type; temperature: 30 C
parameter: protein stability index

INSERT INTO assay_data (entry_sequence, measured_on, reported) VALUES
  ('NMLWSLGRGGSC', 'Saccharomyces cerevisiae', 0.665),
  ('THSQPPQYSRVP', 'Saccharomyces cerevisiae', 0.638),
  ('VIWVLGALASWG', 'Saccharomyces cerevisiae', 0.556),
  ('SGVRAAGEGDSE', 'Saccharomyces cerevisiae', 0.735),
  ('DIAFFEGSGGTM', 'Saccharomyces cerevisiae', 0.675),
  ('TSVSLYWDSNLC', 'Saccharomyces cerevisiae', 0.751);

For every item below, please supply its protein stability index.
1. LPPTLPPPPPAL
2. FPVSSRSFSFIP
3. FGGICFAVLLCR
4. GFALVVGNLISF
5. PKVRAGYSYEVM
6. GDSVRVIIFCLN
7. RWGGRTASVPCG

Data returned:
0.724
0.727
0.343
0.636
0.673
0.304
0.754

----------
Field: protein stability index. Provide a value for each of the sequences that follow.
Tested on: Saccharomyces cerevisiae
Experiment: protein stability index of tFT-peptide fusion (C-terminal peptide) (PSI (0-1 scale)); higher = more stable (slower turnover)
Details: genetic background: wild type; temperature: 30 C
One number for each entry.

INSERT INTO assay_data (entry_sequence, measured_on, parameter, reported) VALUES
  ('QQQQQKKESSTA [GIM5 C-terminal 12 aa]', 'Saccharomyces cerevisiae', 'protein stability index', 0.7),
  ('LNTSNECCTSDD [BIL2 C-terminal 12 aa]', 'Saccharomyces cerevisiae', 'protein stability index', 0.669),
  ('LVEILDCEIRTL [MIC60 C-terminal 12 aa]', 'Saccharomyces cerevisiae', 'protein stability index', 0.671),
  ('KEQEESEKDKEN [BFR1 C-terminal 12 aa]', 'Saccharomyces cerevisiae', 'protein stability index', 0.69),
  ('VFDENMYSKYSS [BRO1 C-terminal 12 aa]', 'Saccharomyces cerevisiae', 'protein stability index', 0.712);

Switching to the query record.
Data request: So what does the record say about protein stability index for LAKGGADVKPKK [RDL2 C-terminal 12 aa] ?
Data returned: 0.708

----------
Field: protein stability index. Provide a value for each of the sequences that follow.
Test system: Saccharomyces cerevisiae
Assay: protein stability index of tFT-peptide fusion (C-terminal peptide) (PSI (0-1 scale)); higher = more stable (slower turnover)
Details: genetic background: das1 deletion; temperature: 30 C
Numbers only.

INSERT INTO assay_data (entry_sequence, reported) VALUES
  ('CLGDSIVNLLLI [YGR259C C-terminal 12 aa]', 0.677),
  ('ANDWKTYENMKK [SIP18 C-terminal 12 aa]', 0.704),
  ('MGSSRRTSLDFF [YBR071W C-terminal 12 aa]', 0.724),
  ('WDGNLFVWNGLG [PEX7 C-terminal 12 aa]', 0.733),
  ('MKKPRKSKKAAN [KRE33 C-terminal 12 aa]', 0.716);

For every item below, please supply its protein stability index.
1. KDVIVDHHSDLN [SAP4 C-terminal 12 aa]
2. IGGLKREAEASA [GDH2 C-terminal 12 aa]
3. AKFFIPFSHSSP [YPL185W C-terminal 12 aa]
4. QKNKKRKFSDTS [RNT1 C-terminal 12 aa]
5. MFTSDKKTEQTT [URC2 C-terminal 12 aa]

Data returned:
1. 0.706
2. 0.695
3. 0.729
4. 0.696
5. 0.708

For every item below, please supply its protein stability index.
1. LIHASSVEQATA [MRPL4 C-terminal 12 aa]
2. VFDENMYSKYSS [BRO1 C-terminal 12 aa]

Data returned:
1: 0.68; 2: 0.712
